Source listed as PubChem BioAssay AID1963427.

test system: 317291-083-R-J1-PDC complex spheroid growth; test: Anticancer human tumor 317291-083-R-J1-PDC patient-derived soft tissue sarcoma cell line growth inhibition [Asc]; conditions: second compound 1 µM; first compound 0.00316 µM; stronger effect = lower value
Measure: viability, T/C

// worked examples, viability, T/C included
molecule="NC1CCC(NC2CC2c2ccccc2)CC1 (configuration not stated) + CNC(C)C(=O)NC1CN(S(=O)(=O)c2cccc(S(=O)(=O)N3CCC4CCC(C(=O)NC(c5ccccc5)c5ccccc5)N4C(=O)C(NC(=O)C(C)NC)C3)c2)CCC2CCC(C(=O)NC(c3ccccc3)c3ccccc3)N2C1=O" experimental_value=34.5%
molecule="CNC(C)C(=O)NC1CN(S(=O)(=O)c2cccc(S(=O)(=O)N3CCC4CCC(C(=O)NC(c5ccccc5)c5ccccc5)N4C(=O)C(NC(=O)C(C)NC)C3)c2)CCC2CCC(C(=O)NC(c3ccccc3)c3ccccc3)N2C1=O (configuration not stated) + Cc1c(S(C)(=O)=O)c(-c2cc(F)cc(N3CCN(c4ccc(NS(=O)(=O)c5ccc(NC(CCN6CCC(C(=O)OCCCP(=O)(O)O)CC6)CSc6ccccc6)c(S(=O)(=O)C(F)(F)F)c5)cc4)CC3)c2)c(-c2ccc(Cl)cc2)n1C(C)C" experimental_value=70.7%
molecule="COc1c(OCCCN2CCOCC2)ccc2c3n(c(=NC(=O)c4cnc(N)nc4)nc12)CCN3 + Cc1c(S(C)(=O)=O)c(-c2cc(F)cc(N3CCN(c4ccc(NS(=O)(=O)c5ccc(NC(CCN6CCC(C(=O)OCCCP(=O)(O)O)CC6)CSc6ccccc6)c(S(=O)(=O)C(F)(F)F)c5)cc4)CC3)c2)c(-c2ccc(Cl)cc2)n1C(C)C" experimental_value=86.2%
molecule="O=C(c1ccc(F)c(F)c1Nc1ccc(I)cc1F)N1CC(O)([C@@H]2CCCCN2)C1 + Cc1c(S(C)(=O)=O)c(-c2cc(F)cc(N3CCN(c4ccc(NS(=O)(=O)c5ccc(NC(CCN6CCC(C(=O)OCCCP(=O)(O)O)CC6)CSc6ccccc6)c(S(=O)(=O)C(F)(F)F)c5)cc4)CC3)c2)c(-c2ccc(Cl)cc2)n1C(C)C" experimental_value=76.7%
molecule="O=C(c1ccc(F)c(F)c1Nc1ccc(I)cc1F)N1CC(O)([C@@H]2CCCCN2)C1 + CNC(C)C(=O)NC1CN(S(=O)(=O)c2cccc(S(=O)(=O)N3CCC4CCC(C(=O)NC(c5ccccc5)c5ccccc5)N4C(=O)C(NC(=O)C(C)NC)C3)c2)CCC2CCC(C(=O)NC(c3ccccc3)c3ccccc3)N2C1=O" experimental_value=37.1%
molecule="CCN1CCN(Cc2ccc(Nc3ncc(F)c(-c4cc(F)c5nc(C)n(C(C)C)c5c4)n3)nc2)CC1 + Cc1c(S(C)(=O)=O)c(-c2cc(F)cc(N3CCN(c4ccc(NS(=O)(=O)c5ccc(NC(CCN6CCC(C(=O)OCCCP(=O)(O)O)CC6)CSc6ccccc6)c(S(=O)(=O)C(F)(F)F)c5)cc4)CC3)c2)c(-c2ccc(Cl)cc2)n1C(C)C" experimental_value=87.2%

Switching to the query record.
query: I'd like to know its viability, T/C. The molecule in question is NC1CCC(NC2CC2c2ccccc2)CC1 (configuration not stated) + Cc1c(S(C)(=O)=O)c(-c2cc(F)cc(N3CCN(c4ccc(NS(=O)(=O)c5ccc(NC(CCN6CCC(C(=O)OCCCP(=O)(O)O)CC6)CSc6ccccc6)c(S(=O)(=O)C(F)(F)F)c5)cc4)CC3)c2)c(-c2ccc(Cl)cc2)n1C(C)C
result: 93%

* * *

test system: 317291-083-R-J1-PDC complex spheroid growth; assay: Anticancer human tumor 317291-083-R-J1-PDC cell line growth inhibition [Asc]; settings: curve of first compound; second compound 0.00316 µM;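 note: compound exposure lasted seven days after spheroids formed for three days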
Hi there, I'd appreciate the recorded pIC50 for every entry that follows.
Give bare numbers, as −log10 of the molar value.

List pIC50 for every entry below, keeping the order given.
1. O=C(c1ccc(F)c(F)c1Nc1ccc(I)cc1F)N1CC(O)([C@@H]2CCCCN2)C1 + CNC(C)C(=O)NC1CN(S(=O)(=O)c2cccc(S(=O)(=O)N3CCC4CCC(C(=O)NC(c5ccccc5)c5ccccc5)N4C(=O)C(NC(=O)C(C)NC)C3)c2)CCC2CCC(C(=O)NC(c3ccccc3)c3ccccc3)N2C1=O
2. COc1c(OCCCN2CCOCC2)ccc2c3n(c(=NC(=O)c4cnc(N)nc4)nc12)CCN3 + CNC(C)C(=O)NC1CN(S(=O)(=O)c2cccc(S(=O)(=O)N3CCC4CCC(C(=O)NC(c5ccccc5)c5ccccc5)N4C(=O)C(NC(=O)C(C)NC)C3)c2)CCC2CCC(C(=O)NC(c3ccccc3)c3ccccc3)N2C1=O
3. C=CC(=O)N1CCN(c2nc(=O)n(-c3c(C)ccnc3C(C)C)c3nc(-c4c(O)cccc4F)c(F)cc23)C(C)C1 (configuration not stated) + CNC(C)C(=O)NC1CN(S(=O)(=O)c2cccc(S(=O)(=O)N3CCC4CCC(C(=O)NC(c5ccccc5)c5ccccc5)N4C(=O)C(NC(=O)C(C)NC)C3)c2)CCC2CCC(C(=O)NC(c3ccccc3)c3ccccc3)N2C1=O
4. NC(=O)C(=Cn1cnc(-c2cc(C(F)(F)F)cc(C(F)(F)F)c2)n1)c1cncnc1 + CNC(C)C(=O)NC1CN(S(=O)(=O)c2cccc(S(=O)(=O)N3CCC4CCC(C(=O)NC(c5ccccc5)c5ccccc5)N4C(=O)C(NC(=O)C(C)NC)C3)c2)CCC2CCC(C(=O)NC(c3ccccc3)c3ccccc3)N2C1=O
5. C#Cc1c(F)ccc2cc(O)cc(-c3ncc4c(N5CC6CCC(C5)N6)nc(OCC56CCCN5CC(F)C6)nc4c3F)c12 (configuration not stated) + CNC(C)C(=O)NC1CN(S(=O)(=O)c2cccc(S(=O)(=O)N3CCC4CCC(C(=O)NC(c5ccccc5)c5ccccc5)N4C(=O)C(NC(=O)C(C)NC)C3)c2)CCC2CCC(C(=O)NC(c3ccccc3)c3ccccc3)N2C1=O

result:
6.69
7.10
5.01
7.98
5.17

* * *

system: 317291-083-R-J1-PDC complex spheroid growth; experiment: Anticancer human tumor 317291-083-R-J1-PDC cell line growth inhibition [Asc]; details: second compound 0.316 µM; first compound 0.001 µM; stronger effect = lower value;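 note: compound exposure lasted seven days after spheroids formed for three days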;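 for viability, T/C: 100% = DMSO vehicle control wells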
Hi there, I'd appreciate the recorded viability, T/C for every entry that follows.
Give bare numbers, in %.

compound="NC1CCC(NC2CC2c2ccccc2)CC1 (centres undefined) + Cc1c(S(C)(=O)=O)c(-c2cc(F)cc(N3CCN(c4ccc(NS(=O)(=O)c5ccc(NC(CCN6CCC(C(=O)OCCCP(=O)(O)O)CC6)CSc6ccccc6)c(S(=O)(=O)C(F)(F)F)c5)cc4)CC3)c2)c(-c2ccc(Cl)cc2)n1C(C)C" unit_label=% experimental_value=100
compound="Cn1ncnc1[C@H]1c2n[nH]c(=O)c3cc(F)cc(c23)N[C@@H]1c1ccc(F)cc1 + Cc1c(S(C)(=O)=O)c(-c2cc(F)cc(N3CCN(c4ccc(NS(=O)(=O)c5ccc(NC(CCN6CCC(C(=O)OCCCP(=O)(O)O)CC6)CSc6ccccc6)c(S(=O)(=O)C(F)(F)F)c5)cc4)CC3)c2)c(-c2ccc(Cl)cc2)n1C(C)C" unit_label=% experimental_value=74.1
compound="NC1CCC(NC2CC2c2ccccc2)CC1 (centres undefined) + CNC(C)C(=O)NC1CN(S(=O)(=O)c2cccc(S(=O)(=O)N3CCC4CCC(C(=O)NC(c5ccccc5)c5ccccc5)N4C(=O)C(NC(=O)C(C)NC)C3)c2)CCC2CCC(C(=O)NC(c3ccccc3)c3ccccc3)N2C1=O" unit_label=% experimental_value=56.5

Switching to the query record.
query: I'd like to know its viability, T/C. The compound in question is Cn1ncnc1[C@H]1c2n[nH]c(=O)c3cc(F)cc(c23)N[C@@H]1c1ccc(F)cc1 + CNC(C)C(=O)NC1CN(S(=O)(=O)c2cccc(S(=O)(=O)N3CCC4CCC(C(=O)NC(c5ccccc5)c5ccccc5)N4C(=O)C(NC(=O)C(C)NC)C3)c2)CCC2CCC(C(=O)NC(c3ccccc3)c3ccccc3)N2C1=O
result: 55.7

* * *

test system: 317291-083-R-J1-PDC complex spheroid growth; experiment: Anticancer human tumor 317291-083-R-J1-PDC cell line growth inhibition [Asc]; details: second compound 0.1 µM; first compound 0.03 µM; stronger effect = lower value;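 note: compound exposure lasted seven days after spheroids formed for three days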;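 for viability, T/C: 100% = DMSO vehicle control wells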
Hi there, I'd appreciate the recorded viability, T/C for every entry that follows.

compound="Cc1nc(N2CCC3(CC2)COC(C)C3N)c(CO)nc1Sc1ccnc(N)c1Cl (stereo unspecified) + CNC(C)C(=O)NC1CN(S(=O)(=O)c2cccc(S(=O)(=O)N3CCC4CCC(C(=O)NC(c5ccccc5)c5ccccc5)N4C(=O)C(NC(=O)C(C)NC)C3)c2)CCC2CCC(C(=O)NC(c3ccccc3)c3ccccc3)N2C1=O" measure="viability, T/C" experimental_value=51.2%
compound="Cc1nc(N2CCC3(CC2)COC(C)C3N)c(CO)nc1Sc1ccnc(N)c1Cl (stereo unspecified) + Cc1c(S(C)(=O)=O)c(-c2cc(F)cc(N3CCN(c4ccc(NS(=O)(=O)c5ccc(NC(CCN6CCC(C(=O)OCCCP(=O)(O)O)CC6)CSc6ccccc6)c(S(=O)(=O)C(F)(F)F)c5)cc4)CC3)c2)c(-c2ccc(Cl)cc2)n1C(C)C" measure="viability, T/C" experimental_value=92.1%
compound="NC(=O)C(=Cn1cnc(-c2cc(C(F)(F)F)cc(C(F)(F)F)c2)n1)c1cncnc1 + CNC(C)C(=O)NC1CN(S(=O)(=O)c2cccc(S(=O)(=O)N3CCC4CCC(C(=O)NC(c5ccccc5)c5ccccc5)N4C(=O)C(NC(=O)C(C)NC)C3)c2)CCC2CCC(C(=O)NC(c3ccccc3)c3ccccc3)N2C1=O" measure="viability, T/C" experimental_value=16.6%
compound="NC(=O)C(=Cn1cnc(-c2cc(C(F)(F)F)cc(C(F)(F)F)c2)n1)c1cncnc1 + Cc1c(S(C)(=O)=O)c(-c2cc(F)cc(N3CCN(c4ccc(NS(=O)(=O)c5ccc(NC(CCN6CCC(C(=O)OCCCP(=O)(O)O)CC6)CSc6ccccc6)c(S(=O)(=O)C(F)(F)F)c5)cc4)CC3)c2)c(-c2ccc(Cl)cc2)n1C(C)C" measure="viability, T/C" experimental_value=53.8%
compound="CCN1C(C(=O)NC23CCC(C(=O)O)(CC2)CC3)C(c2cccc(Cl)c2F)C2(C(=O)Nc3cc(Cl)ccc32)C12CCCCC2 (stereo unspecified) + CNC(C)C(=O)NC1CN(S(=O)(=O)c2cccc(S(=O)(=O)N3CCC4CCC(C(=O)NC(c5ccccc5)c5ccccc5)N4C(=O)C(NC(=O)C(C)NC)C3)c2)CCC2CCC(C(=O)NC(c3ccccc3)c3ccccc3)N2C1=O" measure="viability, T/C" experimental_value=61.9%

query: Which viability, T/C is reported with 317291-083-R-J1-PDC complex spheroid growth for this entry: CCN1C(C(=O)NC23CCC(C(=O)O)(CC2)CC3)C(c2cccc(Cl)c2F)C2(C(=O)Nc3cc(Cl)ccc32)C12CCCCC2 (stereo unspecified) + Cc1c(S(C)(=O)=O)c(-c2cc(F)cc(N3CCN(c4ccc(NS(=O)(=O)c5ccc(NC(CCN6CCC(C(=O)OCCCP(=O)(O)O)CC6)CSc6ccccc6)c(S(=O)(=O)C(F)(F)F)c5)cc4)CC3)c2)c(-c2ccc(Cl)cc2)n1C(C)C ?
result: 90.2%
